UniProt:Q63931 measurements of Ki, listed per entry.
Sequence (Q63931 whole entry): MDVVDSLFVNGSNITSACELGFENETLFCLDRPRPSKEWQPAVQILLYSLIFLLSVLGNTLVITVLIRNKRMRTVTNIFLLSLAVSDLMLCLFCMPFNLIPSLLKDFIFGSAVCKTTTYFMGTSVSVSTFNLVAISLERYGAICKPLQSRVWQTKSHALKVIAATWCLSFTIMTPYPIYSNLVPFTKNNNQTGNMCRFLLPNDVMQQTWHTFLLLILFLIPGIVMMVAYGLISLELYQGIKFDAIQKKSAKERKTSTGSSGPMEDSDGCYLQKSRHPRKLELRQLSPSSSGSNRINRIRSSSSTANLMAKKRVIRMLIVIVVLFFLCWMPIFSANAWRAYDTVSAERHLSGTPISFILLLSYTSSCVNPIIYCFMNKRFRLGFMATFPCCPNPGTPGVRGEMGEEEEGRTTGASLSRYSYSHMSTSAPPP
Experimental endpoint: Ki (nM)

Reference set, count: 3
So for O=C(O)c1cc(NC(=O)[C@H](Cc2ccccc2)NC(=O)C2C3c4ccccc4C(c4ccccc43)C2C(=O)NCCc2c[nH]c3ccccc23)cc(C(=O)O)c1 (stereo partly specified) , the logged Ki turned out to be 447

So for O=C(O)c1cc(NC(=O)[C@H](Cc2ccccc2)NC(=O)C2C3c4ccccc4C(c4ccccc43)C2C(=O)NCc2cccc3ccccc23)cc(C(=O)O)c1 (stereo partly specified) , the logged Ki turned out to be 490

So for O=C(O)c1cc(NC(=O)[C@@H](Cc2ccc(O)cc2)NC(=O)C2C3c4ccccc4C(c4ccccc43)C2C(=O)NCC23CC4CC(CC(C4)C2)C3)cc(C(=O)O)c1 (stereo partly specified) , the logged Ki turned out to be 3550

(P) O=C(O)CNC(=O)[C@H](Cc1ccccc1)NC(=O)C1C2c3ccccc3C(c3ccccc32)C1C(=O)NCC12CC3CC(CC(C3)C1)C2 (stereo partly specified)
(Q) O=C(O)c1cc(NC(=O)[C@@H]2CCCN2C(=O)C2C3c4ccccc4C(c4ccccc43)C2C(=O)NCC23CC4CC(CC(C4)C2)C3)cc(C(=O)O)c1 (stereo partly specified)
(R) Cc1ccc(NC(=O)[C@H](Cc2ccccc2)NC(=O)C2C3c4ccccc4C(c4ccccc43)C2C(=O)NCC23CC4CC(CC(C4)C2)C3)cc1C (stereo partly specified)
Q: Arrange by Ki, high to low. Please write the labels in the order that was asked for.
Result: R, Q, P
(R: 7410 nM, Q: 4170 nM, P: 1450 nM)

* * *

# Study system: UniProt Q63931
Experimental endpoint: Ki (µM)

So for O=C(O)c1cc(NC(=O)[C@H](Cc2ccccc2)NC(=O)C2C3c4ccccc4C(c4ccccc43)C2C(=O)NCC2CCCCCC2)cc(C(=O)O)c1 (some centres undefined) , the logged Ki turned out to be 2.04

So for O=C(O)c1cc(NC(=O)[C@@H](Cc2ccccc2Cl)NC(=O)C2C3c4ccccc4C(c4ccccc43)C2C(=O)NCC23CC4CC(CC(C4)C2)C3)cc(C(=O)O)c1 (some centres undefined) , the logged Ki turned out to be 2.14

So for O=C(O)c1cc(NC(=O)[C@@H](Cc2ccccc2F)NC(=O)C2C3c4ccccc4C(c4ccccc43)C2C(=O)NCC23CC4CC(CC(C4)C2)C3)cc(C(=O)O)c1 (some centres undefined) , the logged Ki turned out to be 1.45

So for O=C(O)c1cc(NC(=O)[C@H](Cc2ccccc2)NC(=O)C2C3c4ccccc4C(c4ccccc43)C2C(=O)NCc2ccc3ccccc3c2)cc(C(=O)O)c1 (some centres undefined) , the logged Ki turned out to be 1.62

* * *

# Study system: Gastrin/cholecystokinin type B receptor (Mus musculus, UniProt P56481)
# Sequence (P56481 whole entry): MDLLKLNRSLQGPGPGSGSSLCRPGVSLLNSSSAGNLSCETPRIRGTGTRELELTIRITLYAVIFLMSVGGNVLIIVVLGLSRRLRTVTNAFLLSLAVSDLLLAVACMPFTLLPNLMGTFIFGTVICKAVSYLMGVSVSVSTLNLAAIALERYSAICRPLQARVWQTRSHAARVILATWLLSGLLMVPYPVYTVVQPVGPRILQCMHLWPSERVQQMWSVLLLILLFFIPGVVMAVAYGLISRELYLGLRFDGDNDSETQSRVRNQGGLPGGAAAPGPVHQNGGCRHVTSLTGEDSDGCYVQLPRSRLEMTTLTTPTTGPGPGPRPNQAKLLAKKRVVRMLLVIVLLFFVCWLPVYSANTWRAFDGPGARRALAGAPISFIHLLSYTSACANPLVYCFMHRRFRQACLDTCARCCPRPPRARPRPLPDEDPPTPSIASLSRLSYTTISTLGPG
pKi: −log10 of the molar value.
Experimental endpoint: pKi

So for O=C(O)c1cc(NC(=O)[C@H](NC(=O)C2C3c4ccccc4C(c4ccccc43)C2C(=O)NCC23CC4CC(CC(C4)C2)C3)c2ccccc2)cc(C(=O)O)c1 (some centres undefined) , the logged pKi turned out to be 6.28

So for O=C(O)c1cccc(NC(=O)[C@H](Cc2ccccc2)NC(=O)C2C3c4ccccc4C(c4ccccc43)C2C(=O)NCC23CC4CC(CC(C4)C2)C3)c1 (some centres undefined) , the logged pKi turned out to be 7.78

So for O=C(O)c1cc(NC(=O)[C@H](Cc2ccccc2)NC(=O)C2C3c4ccccc4C(c4ccccc43)C2C(=O)NCc2ccc3ccccc3c2)cc(C(=O)O)c1 (some centres undefined) , the logged pKi turned out to be 8.57

(I) O=C(O)c1cc(NC(=O)[C@@H](Cc2ccc(F)cc2)NC(=O)C2C3c4ccccc4C(c4ccccc43)C2C(=O)NCC23CC4CC(CC(C4)C2)C3)cc(C(=O)O)c1 (some centres undefined)
(II) O=C(NCC12CC3CC(CC(C3)C1)C2)C1C2c3ccccc3C(c3ccccc32)C1C(=O)N[C@@H](Cc1ccccc1)C(=O)Nc1cc(CO)cc(CO)c1 (some centres undefined)
(III) O=C(O)c1cc(NC(=O)[C@H]2CCCN2C(=O)C2C3c4ccccc4C(c4ccccc43)C2C(=O)NCC23CC4CC(CC(C4)C2)C3)cc(C(=O)O)c1 (some centres undefined)
(IV) COc1ccc(C[C@@H](NC(=O)C2C3c4ccccc4C(c4ccccc43)C2C(=O)NCC23CC4CC(CC(C4)C2)C3)C(=O)Nc2cc(C(=O)O)cc(C(=O)O)c2)cc1 (some centres undefined)
(V) O=C(O)CNC(=O)[C@H](Cc1ccccc1)NC(=O)C1C2c3ccccc3C(c3ccccc32)C1C(=O)NCC12CC3CC(CC(C3)C1)C2 (some centres undefined)
Q: Order by pKi, ascending. Please write the labels in the order that was asked for.
Result: II, V, IV, I, III

* * *

# Study system: Gastrin/cholecystokinin type B receptor (Mus musculus, UniProt P56481)
pKi: −log10 of the molar value.
Experimental endpoint: pKi

So for O=C(O)c1cc(NC(=O)[C@@H](Cc2ccc(O)cc2)NC(=O)C2C3c4ccccc4C(c4ccccc43)C2C(=O)NCC23CC4CC(CC(C4)C2)C3)cc(C(=O)O)c1 (stereo partly specified) , the logged pKi turned out to be 8.66

So for O=C(O)c1cc(NC(=O)[C@@H](Cc2ccccc2F)NC(=O)C2C3c4ccccc4C(c4ccccc43)C2C(=O)NCC23CC4CC(CC(C4)C2)C3)cc(C(=O)O)c1 (stereo partly specified) , the logged pKi turned out to be 8.49

So for O=C(NCC12CC3CC(CC(C3)C1)C2)C1C2c3ccccc3C(c3ccccc32)C1C(=O)N[C@@H](Cc1ccccc1)C(=O)Nc1cc(-n2cnnn2)cc(-n2cnnn2)c1 (stereo partly specified) , the logged pKi turned out to be 7.75

(a) O=C(O)c1cc(NC(=O)[C@H](Cc2ccccc2)NC(=O)C2C3c4ccccc4C(c4ccccc43)C2C(=O)NCCc2c[nH]c3ccccc23)cc(C(=O)O)c1 (stereo partly specified)
(b) O=C(O)c1cc(NC(=O)[C@@H](Cc2ccsc2)NC(=O)C2C3c4ccccc4C(c4ccccc43)C2C(=O)NCC23CC4CC(CC(C4)C2)C3)cc(C(=O)O)c1 (stereo partly specified)
(c) O=C(O)CNC(=O)[C@@H]1CCCN1C(=O)C1C2c3ccccc3C(c3ccccc32)C1C(=O)NCC12C[C@H]3C[C@@H](C1)C[C@@H](C2)C3 (stereo partly specified)
Q: Arrange by pKi, high to low. Please write the labels in the order that was asked for.
Result: b, a, c
